Just for reference, patent US20190241669A1 is where these values come from.

Please provide measured Kd for the entries that follow.
Target: Human BCMA (human) (UniProt Q02223)
Assay: SPR, IgG on chip, huBCMA analyte
# value in nM; strip the unit string

Consider the binder C01_Rd4_6nM_C26 (antibody, V domains shown, IgG) VH: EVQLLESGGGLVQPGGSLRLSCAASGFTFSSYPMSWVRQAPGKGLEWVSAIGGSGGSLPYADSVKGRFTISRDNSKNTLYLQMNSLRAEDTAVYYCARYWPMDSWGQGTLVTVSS VL: EIVLTQSPGTLSLSPGERATLSCRASQSVSALYLAWYQQKPGQAPRLLIYDASSRAPGIPDRFSGSGSGTDFTLTISRLEPEDFAVYYCQQYSAWPLTFGQGTKVEIK . State its measured Kd.
0.09

Quickly give me recorded Kd for COMBO_Rd4_0.6nM_C14 (antibody, V domains shown, IgG) VH: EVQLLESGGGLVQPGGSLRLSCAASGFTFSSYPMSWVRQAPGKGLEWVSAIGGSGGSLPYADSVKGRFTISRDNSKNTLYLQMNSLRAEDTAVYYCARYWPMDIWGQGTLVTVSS VL: EIVLTQSPGTLSLSPGERATLSCRASQSVSALYLAWYQQKPGQAPRLLMYDASIRATGIPDRFSGSGSGTDFTLTISRLEPEDFAVYYCQQYYGWPLTFGQGTKVEIK
0.038

In one line, give reported Kd of the entry COMBO_Rd4_0.6nM_C21 (antibody, V domains shown, IgG) VH: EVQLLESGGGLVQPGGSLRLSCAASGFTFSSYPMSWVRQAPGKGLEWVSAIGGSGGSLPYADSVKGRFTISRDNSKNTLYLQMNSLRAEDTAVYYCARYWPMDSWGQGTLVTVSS VL: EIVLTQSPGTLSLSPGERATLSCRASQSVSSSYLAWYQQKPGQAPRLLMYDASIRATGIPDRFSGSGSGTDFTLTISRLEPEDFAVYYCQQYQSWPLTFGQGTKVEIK .
0.009
